target: cytochrome P450 2C9 (Homo sapiens); assay: Determining the cyp2C9 activity (O-demethylation of [O-methyl-14C]-naproxen); conditions: human recombinant cytochrome P450 2C9; 37° C.; <0.4 μM when inhibition >50% at lowest concentration; read-out: CYP 2C9 IC50
Sequence (P11712 whole entry): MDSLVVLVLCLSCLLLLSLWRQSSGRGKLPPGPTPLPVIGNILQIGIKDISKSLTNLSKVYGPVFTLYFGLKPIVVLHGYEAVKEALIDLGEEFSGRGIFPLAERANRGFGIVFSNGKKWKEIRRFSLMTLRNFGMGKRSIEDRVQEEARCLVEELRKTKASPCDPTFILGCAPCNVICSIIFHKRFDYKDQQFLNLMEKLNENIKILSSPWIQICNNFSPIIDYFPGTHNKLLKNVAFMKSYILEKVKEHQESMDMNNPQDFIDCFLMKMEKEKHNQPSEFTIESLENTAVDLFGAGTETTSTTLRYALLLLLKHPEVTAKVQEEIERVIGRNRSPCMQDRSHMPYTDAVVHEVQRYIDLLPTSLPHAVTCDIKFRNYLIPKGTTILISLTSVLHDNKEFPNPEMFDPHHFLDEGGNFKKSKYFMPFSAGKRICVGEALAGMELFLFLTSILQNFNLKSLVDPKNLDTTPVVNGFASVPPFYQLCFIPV
MEASUREMENT KIND: pIC50
Give bare numbers, as −log10 of the molar value.

As a guide, the following entries are already answered.
{"columns": ["MOLECULE", "MEASUREMENT KIND", "OBSERVED"],
 "data": [
  ["COc1c(CN2CCN(C(C)C)CC2)cc(C(C)(C)C)cc1NC(=O)c1cc2cccc(CN3CCN(C(=O)[C@@H]4CCCN4C)CC3)c2n1C", "pIC50", 4.35],
  ["COc1c(NC(=O)c2cc3cccc(CN4CCC(C(=O)N5CCN(C)CC5)CC4)c3n2C)cc(C(C)(C)C)cc1NS(C)(=O)=O", "pIC50", 5.81],
  ["COc1c(NC(=O)c2cc3cccc(CC4CCCN(C(=O)[C@H]5CCCN5C)CC4)c3n2C)cc(C(C)(C)C)cc1NS(C)(=O)=O (stereo partly drawn)", "pIC50", 5.59],
  ["CCC(=O)Nc1cc(C(C)(C)C)cc(NC(=O)c2cc3cccc(CN4CCN(C(=O)[C@@H]5CCCN5C)CC4)c3n2C)c1OC", "pIC50", 6.30]
]}

Shifting focus to the molecule that follows.
I would be grateful if you could share the reported pIC50 for `COc1c(NC(=O)c2cc3cccc(CN4CCN(C(=O)[C@@H]5C[C@H](O)CN5C)CC4)c3n2C)cc(C(C)(C)C)cc1NS(C)(=O)=O` . 5.81
